assay-endpoint: melting point

// sample O=C1NC(=O)C(CCCC#Cc2ccc(Cl)cc2)(S(=O)(=O)c2ccc(OCc3ccccc3)cc2)S1 (stereo not shown) [Example 111] , its melting point was 181 to 184 °C

// sample Cc1cc([N+](=O)[O-])ccc1C#CCCCC1(S(=O)(=O)c2ccc(Oc3ccccc3)cc2)SC(=O)NC1=O (stereo not shown) [Example 129] , its melting point was 210 to 212 °C

// sample COc1ccc(S(=O)(=O)C2(CCCC#Cc3cccc([N+](=O)[O-])c3)SC(=O)NC2=O)cc1 (stereo not shown) [Example 118] , its melting point was 126 to 130 °C

// sample COc1ccc(S(=O)(=O)C2(CCCCC#Cc3ccc(Cl)cc3)SC(=O)NC2=O)cc1 (stereo not shown) [Example 98] , its melting point was 145 to 148 °C

// sample O=C1NC(=O)C(CCCC#Cc2ccc(Cl)cc2)(S(=O)(=O)c2cccc3ccccc23)S1 (stereo not shown) [Example 113] , its melting point was 172 to 174 °C

// sample Cc1ccc(NC(=O)OC(C)(C)C)cc1C#CCCCC1(S(=O)(=O)c2ccc(I)cc2)SC(=O)NC1=O (stereo not shown) [Example 148] , its melting point was 172 to 175 °C

// sample COc1ccc(S(=O)(=O)C2(CCCC#Cc3cc(NC(=O)OC(C)(C)C)ccc3C)SC(=O)NC2=O)cc1 (stereo not shown) [Example 150] , its melting point was 116 to 118 °C
